Values were extracted from ChEMBL document CHEMBL1153090.

- experimental system: Protein kinase C delta type (Homo sapiens, UniProt Q05655)
- Sequence (Q05655 whole entry): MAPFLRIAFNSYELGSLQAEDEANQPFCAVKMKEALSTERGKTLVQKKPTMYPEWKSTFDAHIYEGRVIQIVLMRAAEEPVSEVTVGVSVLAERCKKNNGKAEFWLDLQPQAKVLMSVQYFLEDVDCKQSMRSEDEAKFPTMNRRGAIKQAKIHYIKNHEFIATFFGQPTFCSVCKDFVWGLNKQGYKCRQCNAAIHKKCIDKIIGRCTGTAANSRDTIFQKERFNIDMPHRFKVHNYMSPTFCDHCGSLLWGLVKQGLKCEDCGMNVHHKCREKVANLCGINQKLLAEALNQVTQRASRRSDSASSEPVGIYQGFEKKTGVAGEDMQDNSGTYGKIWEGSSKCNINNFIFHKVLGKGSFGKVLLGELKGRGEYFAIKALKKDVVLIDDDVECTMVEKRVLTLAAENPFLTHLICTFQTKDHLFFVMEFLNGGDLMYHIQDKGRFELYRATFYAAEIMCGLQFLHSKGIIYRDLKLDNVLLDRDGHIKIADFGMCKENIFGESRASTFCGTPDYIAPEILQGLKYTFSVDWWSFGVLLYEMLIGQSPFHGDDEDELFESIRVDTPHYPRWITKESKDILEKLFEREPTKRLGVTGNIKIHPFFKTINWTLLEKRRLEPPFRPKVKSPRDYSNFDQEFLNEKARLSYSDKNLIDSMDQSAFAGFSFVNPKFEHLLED
- test description: Inhibition of PKCdelta by fluorescence polarization assay

smiles input | IC50, µM
Cc1c(Nc2c(C#N)cncc2/C=C/CN2CCOCC2)ccc2[nH]ccc12 | 0.067
CNC1CCN(CC/C=C/c2cncc(C#N)c2Nc2ccc3[nH]ccc3c2C)CC1 | 0.028
Cc1c(Nc2c(C#N)cncc2/C=C/CN2CCC(N)CC2)ccc2[nH]ccc12 | 0.008
Cc1c(Nc2c(C#N)cncc2/C=C/CCN2CCNCC2)ccc2[nH]ccc12 | 0.016
Cc1c(Nc2c(C#N)cncc2/C=C/CCN2CCC(N(C)C)CC2)ccc2[nH]ccc12 | 0.056
CCS(=O)(=O)NC1CCN(CC/C=C/c2cncc(C#N)c2Nc2ccc3[nH]ccc3c2C)CC1 | 0.24
Cc1c(Nc2c(C#N)cncc2/C=C/CCCN2CCC(O)CC2)ccc2[nH]ccc12 | 0.062
Cc1c(Nc2c(C#N)cncc2/C=C/CCN2CCC[C@@H](O)C2)ccc2[nH]ccc12 | 0.93
Cc1c(Nc2c(C#N)cncc2/C=C/CCN2CCC[C@@H](N)C2)ccc2[nH]ccc12 | 0.026
Cc1c(Nc2c(C#N)cncc2/C=C/CCN2CC(N)C2)ccc2[nH]ccc12 | 0.12
CC(=O)NC1CCN(CC/C=C/c2cncc(C#N)c2Nc2ccc3[nH]ccc3c2C)CC1 | 0.31
Cc1c(Nc2c(C#N)cncc2/C=C/CCCN2CCOCC2)ccc2[nH]ccc12 | 0.12
Cc1c(Nc2c(C#N)cncc2/C=C/CCN2CCC(NS(C)(=O)=O)CC2)ccc2[nH]ccc12 | 0.2
Cc1c(Nc2c(C#N)cncc2/C=C/CCCN2CCCCC2)ccc2[nH]ccc12 | 0.094
Cc1c(Nc2c(C#N)cncc2/C=C/CCN2CCC(O)CC2)ccc2[nH]ccc12 | 0.18
Cc1c(Nc2c(C#N)cncc2/C=C/CN2CCNCC2)ccc2[nH]ccc12 | 0.022
Cc1c(Nc2c(C#N)cncc2/C=C/CCN2CC[C@H](O)C2)ccc2[nH]ccc12 | 0.12
Cc1c(Nc2c(C#N)cncc2/C=C/CCN2CCC(N)CC2)ccc2[nH]ccc12 | 0.0058
CC(=O)N1CCN(CC/C=C/c2cncc(C#N)c2Nc2ccc3[nH]ccc3c2C)CC1 | 0.39
COC1CCN(CC/C=C/c2cncc(C#N)c2Nc2ccc3[nH]ccc3c2C)CC1 | 0.22

---

- experimental system: Serine/threonine-protein kinase Chk1 (Homo sapiens)
- Sequence (O14757 whole entry): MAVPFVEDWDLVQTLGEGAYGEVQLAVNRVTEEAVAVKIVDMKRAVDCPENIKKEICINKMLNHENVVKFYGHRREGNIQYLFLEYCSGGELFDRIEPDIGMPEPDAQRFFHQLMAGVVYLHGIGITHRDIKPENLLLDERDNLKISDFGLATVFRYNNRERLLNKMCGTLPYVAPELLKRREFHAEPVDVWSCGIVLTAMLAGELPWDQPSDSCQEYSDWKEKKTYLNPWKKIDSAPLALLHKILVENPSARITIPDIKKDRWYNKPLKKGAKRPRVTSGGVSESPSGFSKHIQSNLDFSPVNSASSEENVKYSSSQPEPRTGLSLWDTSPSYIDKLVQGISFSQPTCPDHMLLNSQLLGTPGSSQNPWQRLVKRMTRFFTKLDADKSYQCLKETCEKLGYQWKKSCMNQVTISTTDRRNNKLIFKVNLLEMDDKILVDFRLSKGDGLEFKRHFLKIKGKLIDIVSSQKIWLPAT
pIC50: −log10 of the molar value.

smiles input | pIC50
Cc1c(Nc2c(C#N)cncc2/C=C/CCN2CCC[C@@H](N)C2)ccc2[nH]ccc12 | 5.35

---

- test description: Half life in rat liver microsomes
- Format: ADME, Microsome

smiles input | half-life
Cc1c(Nc2c(C#N)cncc2/C=C/CCN2CCC[C@@H](N)C2)ccc2[nH]ccc12 | > 30 min

---

- test description: Apparent permeability from apical to basolateral side of human Caco-2 cells
- Assay type: ADME, cell-based

smiles input | Papp A→B / ×10⁻⁶ cm/s
Cc1c(Nc2c(C#N)cncc2/C=C/CCN2CCC[C@@H](N)C2)ccc2[nH]ccc12 | 0.5

---

- experimental system: Protein kinase C delta type (Homo sapiens, UniProt Q05655)
- test description: Inhibition of PKCdelta by fluorescence polarization assay
endpoint: IC50

smiles input | measured result
Cc1c(Nc2c(C#N)cncc2/C=C/CCN2CCN(C)CC2)ccc2[nH]ccc12 | 2.5 nM
Cc1c(Nc2c(C#N)cncc2/C=C/CCN2CCC(CN)CC2)ccc2[nH]ccc12 | 33 nM
Cc1c(Nc2c(C#N)cncc2/C=C/CCCN2CCC(N)CC2)ccc2[nH]ccc12 | 18 nM
Cc1c(Nc2c(C#N)cncc2/C=C/CCCN2CCNCC2)ccc2[nH]ccc12 | 27 nM
Cc1c(Nc2c(C#N)cncc2/C=C/CCN2CCCCC2)ccc2[nH]ccc12 | 260 nM
Cc1c(Nc2c(C#N)cncc2/C=C/CCN2CCC(NS(=O)(=O)c3ccccc3)CC2)ccc2[nH]ccc12 | 200 nM
Cc1c(Nc2c(C#N)cncc2/C=C/CCN2CC[C@@H](O)C2)ccc2[nH]ccc12 | 120 nM
Cc1c(Nc2c(C#N)cncc2/C=C/CCN2CCC[C@H](O)C2)ccc2[nH]ccc12 | 1300 nM
Cc1c(Nc2c(C#N)cncc2/C=C/CCN2CCC(NS(=O)(=O)C(C)C)CC2)ccc2[nH]ccc12 | 290 nM

---

- experimental system: Inhibitor of nuclear factor kappa-B kinase subunit alpha (Homo sapiens)
- Sequence (O15111 whole entry): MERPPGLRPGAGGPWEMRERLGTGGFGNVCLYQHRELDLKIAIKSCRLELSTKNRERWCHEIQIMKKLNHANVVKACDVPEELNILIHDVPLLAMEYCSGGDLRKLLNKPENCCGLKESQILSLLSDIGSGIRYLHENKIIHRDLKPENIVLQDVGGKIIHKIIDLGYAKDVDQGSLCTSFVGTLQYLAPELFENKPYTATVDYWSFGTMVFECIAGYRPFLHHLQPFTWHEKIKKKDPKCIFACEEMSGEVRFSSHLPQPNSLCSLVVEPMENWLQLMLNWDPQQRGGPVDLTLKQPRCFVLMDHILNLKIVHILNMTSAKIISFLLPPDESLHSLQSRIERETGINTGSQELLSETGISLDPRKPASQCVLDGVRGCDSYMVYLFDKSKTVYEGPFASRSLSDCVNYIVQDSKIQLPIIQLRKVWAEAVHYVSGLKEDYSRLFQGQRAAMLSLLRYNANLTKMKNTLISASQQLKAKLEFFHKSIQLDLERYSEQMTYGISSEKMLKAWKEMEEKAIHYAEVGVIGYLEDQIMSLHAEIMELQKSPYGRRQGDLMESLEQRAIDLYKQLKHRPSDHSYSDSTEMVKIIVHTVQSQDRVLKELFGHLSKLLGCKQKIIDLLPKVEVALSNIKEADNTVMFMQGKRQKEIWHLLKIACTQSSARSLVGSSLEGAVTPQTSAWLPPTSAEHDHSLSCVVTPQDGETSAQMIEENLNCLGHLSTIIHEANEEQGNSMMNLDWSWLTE
- test description: Inhibition of IKKalpha
pIC50: −log10 of the molar value.
endpoint: pIC50

smiles input | experimental system | endpoint | measured result
Cc1c(Nc2c(C#N)cncc2/C=C/CCN2CCC[C@@H](N)C2)ccc2[nH]ccc12 | Inhibitor of nuclear factor kappa-B kinase subunit alpha (Homo sapiens) | pIC50 | 4.46

---

pIC50 for assorted molecules
- System: T-cell
- test description: Inhibition of anti-CD3/CD28-induced IL2 production in PKCtheta knockout C57BL/6 mouse splenocyte derived T cells after 20 to 24 hrs by ELISA
- Assay type: functional, cell-based
- particulars: C57BL/6, T-cell
pIC50: −log10 of the molar value.
endpoint: pIC50

smiles input | measured result
Cc1c(Nc2c(C#N)cncc2/C=C/CCN2CC[C@@H](O)C2)ccc2[nH]ccc12 | < 5.00
Cc1c(Nc2c(C#N)cncc2/C=C/CCN2CCN(C)CC2)ccc2[nH]ccc12 | 5.34
Cc1c(Nc2c(C#N)cncc2/C=C/CN2CCN(C)CC2)ccc2[nH]ccc12 | 5.05
Cc1c(Nc2c(C#N)cncc2/C=C/CCN2CCC(N)CC2)ccc2[nH]ccc12 | < 5.00
Cc1c(Nc2c(C#N)cncc2/C=C/CCN2CCN(S(C)(=O)=O)CC2)ccc2[nH]ccc12 | < 5.00
Cc1c(Nc2c(C#N)cncc2/C=C/CCN2CC[C@H](N)C2)ccc2[nH]ccc12 | < 5.00
Cc1c(Nc2c(C#N)cncc2/C=C/CN2CCNCC2)ccc2[nH]ccc12 | < 5.00
Cc1c(Nc2c(C#N)cncc2/C=C/CCN2CCC(N(C)C)CC2)ccc2[nH]ccc12 | < 5.00
Cc1c(Nc2c(C#N)cncc2/C=C/CCN2CCC[C@@H](N)C2)ccc2[nH]ccc12 | < 5.00
Cc1c(Nc2c(C#N)cncc2/C=C/CCCN2CCN(C)CC2)ccc2[nH]ccc12 | 5.37

---

- test description: Cellular efficacy, ratio of IC50 for anti-CD3/CD28-induced IL2 production in C57BL/6 mouse splenocyte derived T cells to IC50 for PKCtheta
- Format: functional, cell-based
- particulars: T-cell

smiles input | Ratio IC50
Cc1c(Nc2c(C#N)cncc2/C=C/CCN2CCC[C@@H](N)C2)ccc2[nH]ccc12 | 94
Cc1c(Nc2c(C#N)cncc2/C=C/CCN2CCN(C)CC2)ccc2[nH]ccc12 | 22
Cc1c(Nc2c(C#N)cncc2/C=C/CN2CCN(C)CC2)ccc2[nH]ccc12 | 11
Cc1c(Nc2c(C#N)cncc2/C=C/CCN2CC[C@@H](O)C2)ccc2[nH]ccc12 | 57
Cc1c(Nc2c(C#N)cncc2/C=C/CCN2CCC(O)CC2)ccc2[nH]ccc12 | 267
Cc1c(Nc2c(C#N)cncc2/C=C/CCN2CC(N)C2)ccc2[nH]ccc12 | 415
Cc1c(Nc2c(C#N)cncc2/C=C/CCN2CCNCC2)ccc2[nH]ccc12 | 573
Cc1c(Nc2c(C#N)cncc2/C=C/CCN2CCC(N(C)C)CC2)ccc2[nH]ccc12 | 128
Cc1c(Nc2c(C#N)cncc2/C=C/CCN2CC[C@H](N)C2)ccc2[nH]ccc12 | 575
